Known residual activity of a selection of molecules
# target_or_test_system: DYRK1A (human) (UniProt Q13627)
# test_name: radiometric filter-binding kinase assay, Kinase HotSpot
# cond: compound 0.5 µM; ATP 10 µM
measurement_name: residual activity (%)

>>> reported_measurement("CC(C)N(CCC(=O)c1ccc2ccccc2c1)Cc1ccccc1")
105
>>> reported_measurement("CCN(CC)CCNC(=O)c1c(C)[nH]c(/C=C2\\C(=O)Nc3ccc(Cl)cc32)c1C")
47.2
>>> reported_measurement("O=C1NC(=O)/C(=C/c2ccc3c(c2)OC(F)(F)O3)S1")
84.6
>>> reported_measurement("O=C1NC(=O)c2c1c1c3ccccc3n3c1c1c2c2ccccc2n1C1CCC3O1")
8.74

Entry source: the kinase profiling compilation of Christmann-Franck et al. (2016)
